B1: KRT15 (parent)
chain: FGGGSTRGGSLLAGGGGFGGGSLS

Variants of: B1
PROCEDURE SUMMARY: protein stability index of a GFP-peptide fusion (GPS, HEK-293T) (PSI 1-6); higher = more stable;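 note: lentivirally expressed fusions sorted by FACS into six bins by GFP to DsRed ratio, PSI derived from sequencing read proportions per bin multiplied by bin number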
PARTICULARS: c terminus: a fixed tail appended
Documented protein stability index across a set of variants
Keep it simple and answer with nothing but the number.

Recorded protein stability index for FGGHSTRGGSLLAGGGGFGGGSLS , please? 2.22

Recorded protein stability index for FGGGSTRGGSLQAGGGGFGGGSLS , please? 2.67

Recorded protein stability index for FGGGSTRIGSLLAGGGGFGGGSLS , please? 1.58

Recorded protein stability index for FGGGSTRSGSLLAGGGGFGGGSLS , please? 1.62
